Data origin: patent US20100210654A1

Biological target: human platelet P2Y12 receptors (Homo sapiens, UniProt Q9H244)
Construct: Membranes were prepared from human outdated platelets from the blood bank; from tissue; host or cells: human platelets (University of Bonn blood bank), membrane preparation
Sequence (Q9H244 whole entry): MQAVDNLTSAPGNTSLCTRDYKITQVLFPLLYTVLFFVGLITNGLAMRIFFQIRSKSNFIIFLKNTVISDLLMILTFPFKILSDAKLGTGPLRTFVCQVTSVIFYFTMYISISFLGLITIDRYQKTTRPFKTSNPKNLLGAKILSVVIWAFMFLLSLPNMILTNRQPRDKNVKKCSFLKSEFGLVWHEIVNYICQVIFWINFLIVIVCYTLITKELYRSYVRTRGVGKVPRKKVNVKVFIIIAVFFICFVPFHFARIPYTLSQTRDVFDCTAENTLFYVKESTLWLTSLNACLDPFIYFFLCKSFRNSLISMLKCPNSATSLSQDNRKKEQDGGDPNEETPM
Experiment: Radioligand binding assay with [3H]PSB-0413 at human platelet membranes
Settings: human platelet membranes, 5 nM [3H]PSB-0413, 1 h at rt; mean ± SEM; read-out: hP2Y12 Receptor Ki [μM ± SEM] vs. [3H]PSB-0413
What Ki was measured for each of the following?
Kindly provide the numeric value in µM only, without the unit symbol.

Exam item: Fill blank: measured Ki of the compound Nc1c(S(=O)(=O)O)cc(Nc2ccc(Nc3nc(Cl)nc(Cl)n3)c(S(=O)(=O)O)c2)c2c1C(=O)c1ccccc1C2=O [Entry 32] is ____.
Marked response: 2.45

Exam item: // next record Nc1cc(Nc2cc(S(=O)(=O)O)c(N)c3c2C(=O)c2ccccc2C3=O)cc(C(=O)O)c1 [Entry 6]
Marked response: 7.07

Exam item: // next record Nc1c(S(=O)(=O)O)cc(Nc2ccc(Nc3ccccc3)cc2)c2c1C(=O)c1ccccc1C2=O [Entry 18]
Marked response: 1.85

Exam item: // next record Nc1c(S(=O)(=O)O)cc(Nc2cc(Cl)ccc2C(=O)O)c2c1C(=O)c1ccccc1C2=O [Entry 7]
Marked response: 12.2

Exam item: // next record Nc1c(S(=O)(=O)O)cc(Nc2ccc(Oc3ccccc3)c(S(=O)(=O)O)c2)c2c1C(=O)c1ccccc1C2=O [Entry 22]
Marked response: 0.063

Exam item: // next record Nc1c(S(=O)(=O)O)cc(Nc2ccc(Cc3ccccc3)cc2)c2c1C(=O)c1ccccc1C2=O [Entry 13]
Marked response: 0.614

* * *

Biological target: human platelet P2Y12 receptors (Homo sapiens)
Construct: Membranes were prepared from human outdated platelets from the blood bank; from tissue; host or cells: human platelets (University of Bonn blood bank), membrane preparation
Experiment: Radioligand binding assay with [3H]PSB-0413 at human platelet membranes
quantity measured: pKi
In simple prose, pKi is minus the logarithm base ten of a concentration in moles per litre.

Exam item: Fill blank: measured pKi of the compound Nc1c(S(=O)(=O)O)cc(Nc2ccc(S(=O)(=O)O)c(Nc3nc(Cl)nc(Cl)n3)c2)c2c1C(=O)c1ccccc1C2=O is ____.
Marked response: 4.77

* * *

Target: human platelet P2Y12 receptors (Homo sapiens)
Construct: Membranes were prepared from human outdated platelets from the blood bank; from tissue; host or cells: human platelets (University of Bonn blood bank), membrane preparation
Test: Radioligand binding assay with [3H]PSB-0413 at human platelet membranes
Conditions: human platelet membranes, 5 nM [3H]PSB-0413, 1 h at rt; mean ± SEM; read-out: hP2Y12 Receptor Ki [μM ± SEM] vs. [3H]PSB-0413
Binarize Ki at 4 µM; below is t, at or above is f.

Exam item: Hi there! Is Ki for Nc1c(S(=O)(=O)O)cc(Nc2ccc(Nc3ccccc3)c(S(=O)(=O)O)c2)c2c1C(=O)c1ccccc1C2=O below 4 µM, do you know?
Marked response: t

Exam item: // next record Nc1c(S(=O)(=O)O)cc(Nc2cc(Nc3nc(Cl)nc(Cl)n3)cc(C(=O)O)c2)c2c1C(=O)c1ccccc1C2=O
Marked response: t

Exam item: // next record Cc1cc(Nc2ccc(Nc3ccccc3)c(S(=O)(=O)O)c2)c2c(c1N)C(=O)c1ccccc1C2=O
Marked response: t

Exam item: // next record Nc1c(S(=O)(=O)O)cc(Nc2ccccc2C(=O)O)c2c1C(=O)c1ccccc1C2=O
Marked response: f

Exam item: // next record Nc1c(S(=O)(=O)O)cc(Nc2ccc(Nc3nc(O)nc(O)n3)cc2S(=O)(=O)O)c2c1C(=O)c1ccccc1C2=O
Marked response: f

Exam item: // next record Nc1c(S(=O)(=O)O)cc(Nc2ccc(Cl)cc2C(=O)O)c2c1C(=O)c1ccccc1C2=O
Marked response: f

Exam item: // next record Nc1c(S(=O)(=O)O)cc(Nc2ccc(Sc3ccccc3)cc2)c2c1C(=O)c1ccccc1C2=O
Marked response: t

Exam item: // next record Nc1c(S(=O)(=O)O)cc(Nc2ccccc2)c2c1C(=O)c1ccccc1C2=O
Marked response: f

Exam item: // next record Nc1c(S(=O)(=O)O)cc(Nc2ccc(S(=O)(=O)O)cc2)c2c1C(=O)c1ccccc1C2=O
Marked response: t

Exam item: // next record Nc1cc(Nc2cc(S(=O)(=O)O)c(N)c3c2C(=O)c2ccccc2C3=O)ccc1S(=O)(=O)O
Marked response: t

Exam item: // next record COc1nc(Cl)nc(Nc2ccc(Nc3cc(S(=O)(=O)[O-])c(N)c4c3C(=O)c3ccccc3C4=O)cc2S(=O)(=O)[O-])n1.[Na+].[Na+]
Marked response: t

* * *

Molecular target: mouse P2Y2 receptor (Mus musculus)
Sequence (P35383 whole entry): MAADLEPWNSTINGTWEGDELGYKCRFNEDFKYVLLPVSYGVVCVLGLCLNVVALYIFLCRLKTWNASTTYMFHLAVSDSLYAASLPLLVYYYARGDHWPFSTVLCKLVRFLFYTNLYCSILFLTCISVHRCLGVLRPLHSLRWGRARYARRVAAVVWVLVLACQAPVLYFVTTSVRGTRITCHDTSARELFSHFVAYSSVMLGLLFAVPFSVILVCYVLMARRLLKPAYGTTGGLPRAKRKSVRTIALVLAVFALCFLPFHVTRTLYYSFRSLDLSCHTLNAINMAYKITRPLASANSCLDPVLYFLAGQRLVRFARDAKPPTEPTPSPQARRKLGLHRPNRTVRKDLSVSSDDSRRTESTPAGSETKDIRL
Experiment: Inhibition of agonist-induced calcium mobilization in NG108-15 cells
Assay type: cell-based
Details: mean ± SEM, read-out: mP2Y2 Receptor IC50 (μM ± SEM)
What IC50 was measured for each of the following?
Kindly provide the numeric value in µM only, without the unit symbol.

Exam item: Fill blank: measured IC50 of the compound Nc1c(S(=O)(=O)O)cc(Nc2cccc3ccccc23)c2c1C(=O)c1ccccc1C2=O is ____.
Marked response: 10.7

Exam item: // next record Nc1c(S(=O)(=O)O)cc(Nc2ccc(Nc3ccccc3)cc2)c2c1C(=O)c1ccccc1C2=O
Marked response: 30

Exam item: // next record Nc1c(S(=O)(=O)O)cc(Nc2ccccc2)c2c1C(=O)c1ccccc1C2=O
Marked response: 11.1

Exam item: // next record Nc1c(S(=O)(=O)O)cc(Nc2ccc(Cl)cc2)c2c1C(=O)c1ccccc1C2=O
Marked response: 20

* * *

Molecular target: rP2Y6 Receptor (Rattus norvegicus)
Sequence (Q63371 whole entry): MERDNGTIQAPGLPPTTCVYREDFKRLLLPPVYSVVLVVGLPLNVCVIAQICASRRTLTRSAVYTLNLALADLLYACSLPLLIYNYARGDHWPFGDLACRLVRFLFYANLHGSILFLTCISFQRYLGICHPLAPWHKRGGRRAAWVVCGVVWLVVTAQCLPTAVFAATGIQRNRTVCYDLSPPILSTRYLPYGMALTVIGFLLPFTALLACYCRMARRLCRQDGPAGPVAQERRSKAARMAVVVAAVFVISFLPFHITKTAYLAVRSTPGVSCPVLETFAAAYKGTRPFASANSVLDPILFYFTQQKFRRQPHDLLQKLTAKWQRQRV
Test: Inhibition of agonist-induced calcium mobilization, recombinant receptor in human astrocytoma cells
Type: cell-based
Conditions: mean ± SEM
Experimental: Inhibition of agonist-induced calcium mobilization was determined as previously described (Kaulich M. et al, Drug Dev. Res. 2003, 59, 72-81) using NG108-15 cells for the mouse P2Y2 receptor, or human recombinant P2Y receptors stably expressed in human astrocytoma cells (El-Tayeb, A. et al., J. Med. Chem. 2006, 49, 7076-87). The data were analyzed using GraphPad Prism 4.0 (GraphPad Software, Inc., San Diego, Calif.).
What IC50 was measured for each of the following?

Exam item: Fill blank: measured IC50 of the molecule Nc1c(S(=O)(=O)O)cc(Nc2cccc(S(=O)(=O)O)c2)c2c1C(=O)c1ccccc1C2=O is ____.
Marked response: ~100 µM

Exam item: // next record COc1ccc(CCNc2cc(S(=O)(=O)O)c(N)c3c2C(=O)c2ccccc2C3=O)cc1OC
Marked response: > 100 µM

Exam item: // next record Nc1c(S(=O)(=O)O)cc(Nc2cccc3ccccc23)c2c1C(=O)c1ccccc1C2=O
Marked response: 26.7 µM

Exam item: // next record Nc1c(S(=O)(=O)O)cc(Nc2ccc(Cl)cc2)c2c1C(=O)c1ccccc1C2=O
Marked response: > 10 µM

Exam item: // next record Nc1c(S(=O)(=O)[O-])cc(Nc2ccc(Nc3ncccn3)c(S(=O)(=O)[O-])c2)c2c1C(=O)c1ccccc1C2=O.[Na+].[Na+]
Marked response: 28.6 µM

Exam item: // next record Nc1c(S(=O)(=O)O)cc(Nc2ccc(Nc3ccccc3)cc2)c2c1C(=O)c1ccccc1C2=O
Marked response: > 1 µM

Exam item: // next record Nc1ccc(Nc2cc(S(=O)(=O)O)c(N)c3c2C(=O)c2ccccc2C3=O)cc1S(=O)(=O)O
Marked response: 24.3 µM

Exam item: // next record Nc1c(S(=O)(=O)O)cc(Nc2cccc(Cl)c2)c2c1C(=O)c1ccccc1C2=O
Marked response: > 100 µM

* * *

What log10 of Ki was measured for each of the following?
Target: human platelet P2Y12 receptors (Homo sapiens, UniProt Q9H244)
Construct: Membranes were prepared from human outdated platelets from the blood bank; from tissue; host or cells: human platelets (University of Bonn blood bank), membrane preparation
Assay: Radioligand binding assay with [3H]PSB-0413 at human platelet membranes
Settings: human platelet membranes, 5 nM [3H]PSB-0413, 1 h at rt; mean ± SEM; read-out: hP2Y12 Receptor Ki [μM ± SEM] vs. [3H]PSB-0413
For clarity, the numbers are log10 values of Ki expressed in µM.

Exam item: Fill blank: measured log10 of Ki of the molecule Nc1c(S(=O)(=O)O)cc(Nc2ccc(Nc3nc(Cl)nc(Cl)n3)cc2)c2c1C(=O)c1ccccc1C2=O is ____.
Marked response: 0.28

Exam item: // next record Nc1c(S(=O)(=O)O)cc(Nc2cccc(Cl)c2)c2c1C(=O)c1ccccc1C2=O
Marked response: 0.83

Exam item: // next record Nc1ccc(Nc2cc(S(=O)(=O)O)c(N)c3c2C(=O)c2ccccc2C3=O)c(S(=O)(=O)O)c1
Marked response: 1.29

Exam item: // next record Nc1ccc(Nc2cc(S(=O)(=O)O)c(N)c3c2C(=O)c2ccccc2C3=O)cc1S(=O)(=O)O
Marked response: 0.38

Exam item: // next record Nc1c(S(=O)(=O)O)cc(Nc2ccc(Cl)cc2)c2c1C(=O)c1ccccc1C2=O
Marked response: 0.87

Exam item: // next record Nc1c(S(=O)(=O)O)cc(Nc2cccc(S(=O)(=O)O)c2)c2c1C(=O)c1ccccc1C2=O
Marked response: 0.58

Exam item: // next record Nc1c(S(=O)(=O)[O-])cc(Nc2ccc(Nc3ncccn3)c(S(=O)(=O)[O-])c2)c2c1C(=O)c1ccccc1C2=O.[Na+].[Na+]
Marked response: -1.29
